- assay.target: SIRT1 (Homo sapiens)
- experimental.details: SIRT1 deacetylation of Trp 5-mer peptide, OAADPr mass spec assay
- stated.conditions: Trp SIRT1_IC50, Trp 5-mer peptide; class symbols
pIC50: −log10 of the molar value.
metric: pIC50

The following compounds have reported results that may help.
- compound: "NC(=O)c1cc2ncnc(N3CCC(C4CCNCC4)CC3)c2o1 [Compound 100]"
  assay.target: "SIRT1 (Homo sapiens)"
  pIC50: "< 5.00"
- compound: "CC(=O)NCC1CCN(c2ncnc3cc(C(N)=O)sc23)CC1 [Compound 23]"
  assay.target: "SIRT1 (Homo sapiens)"
  pIC50: "< 5.00"
- compound: "COCCC1CCN(c2nccc3cc(C(N)=O)sc23)CC1 [Compound 171]"
  assay.target: "SIRT1 (Homo sapiens)"
  pIC50: "< 5.00"
- compound: "COCCC1CCN(c2ncnc3cc(C(N)=O)oc23)CC1 [Compound 91]"
  assay.target: "SIRT1 (Homo sapiens)"
  pIC50: "5.00 to 6.00"
- compound: "NCCNC(=O)c1cccc(C(=O)NCCN2CCN(c3ncnc4cc(C(N)=O)sc34)CC2)c1 [Compound 127]"
  assay.target: "SIRT1 (Homo sapiens)"
  pIC50: "> 6.00"
- compound: "CCNC(=O)c1ccc(C(=O)NCCC2CCN(c3ncnc4cc(C(=O)NCC)sc34)CC2)s1 [Compound 194]"
  assay.target: "SIRT1 (Homo sapiens)"
  pIC50: "5.00 to 6.00"
- compound: "CC(C)(C)C(=O)NCCC1CCN(c2ncnc3cc(C(=O)O)sc23)CC1 [Compound 40, 2,2,2-trifluoroacetate]"
  assay.target: "SIRT1 (Homo sapiens)"
  pIC50: "< 5.00"
- compound: "NCCC1CCN(c2nccc3cc(C(N)=O)sc23)CC1 [Compound 175]"
  assay.target: "SIRT1 (Homo sapiens)"
  pIC50: "< 5.00"

Looking up NCCC1CCN(c2ccnc3cc(C(N)=O)sc23)CC1 [Compound 104] , I see its pIC50 listed as 5.00 to 6.00

====

Give measured IC50 for each item. Keep answers brief.
- assay.target: UniProt Q8IXJ6
- experimental.details: SIRT2 deacetylation of Trp 5-mer peptide, OAADPr mass spec assay
- Assay type: biochemical
- Design: His-SIRT2(1-389)
- stated.conditions: Trp 5-mer peptide; class symbols; read-out: Trp SIRT2_IC50

// known answers, use as guide
- compound: "CC(C)(C)C(=O)NCCC1CCN(c2ncnc3cc(C(N)=O)oc23)CC1"
  metric: "IC50"
  result: "< 1000 nM"
- compound: "CC(C)(C)C(=O)NCCC1CCN(c2ncnc3cc(C(N)=O)sc23)CC1"
  metric: "IC50"
  result: "< 1000 nM"
- compound: "CC(C)(C)OC(=O)NCCC1CCN(c2nccc3cc(C(N)=O)sc23)CC1"
  metric: "IC50"
  result: "1000 to 10000 nM"
- compound: "Cc1nc(N2CCN(CCNC(=O)OC(C)(C)C)CC2)c2sc(C(N)=O)cc2n1"
  metric: "IC50"
  result: "1000 to 10000 nM"

Go through the list and state IC50 for each entry.
1. CC(C)(C)OC(=O)NCCC1CCN(c2ncnc3cc(C(N)=O)sc23)CC1 [Compound 15a]
2. NC(=O)c1cc2ncnc(N3CCC(CCNC(=O)c4ccc(C(=O)O)s4)CC3)c2s1
3. CC(C)(C)OC(=O)NCCC1CCN(c2ncnc3cc(C(=O)O)sc23)CC1
4. COCCC1CCN(c2nccc3cc(C(N)=O)sc23)CC1
5. CC(C)(C)C(=O)NCCC1CCN(c2ccnc3cc(C(N)=O)sc23)CC1
6. CS(=O)(=O)NCCC1CCN(c2ncnc3cc(C(N)=O)oc23)CC1

1: < 1000 nM; 2: < 1000 nM; 3: > 10000 nM; 4: > 10000 nM; 5: < 1000 nM; 6: < 1000 nM

====

- assay.target: SIRT3 (Homo sapiens, UniProt Q9NTG7)
- Sequence (Q9NTG7 102-399): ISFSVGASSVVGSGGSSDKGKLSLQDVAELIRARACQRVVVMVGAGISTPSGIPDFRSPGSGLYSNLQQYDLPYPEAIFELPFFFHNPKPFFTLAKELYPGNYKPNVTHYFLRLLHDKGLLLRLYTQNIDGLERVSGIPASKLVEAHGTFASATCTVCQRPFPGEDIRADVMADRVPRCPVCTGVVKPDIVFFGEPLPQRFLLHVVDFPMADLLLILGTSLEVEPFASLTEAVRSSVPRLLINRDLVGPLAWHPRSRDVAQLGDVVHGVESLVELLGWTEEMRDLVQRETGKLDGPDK
- experimental.details: SIRT3 deacetylation of Trp 5-mer peptide, OAADPr mass spec assay
- stated.conditions: Trp SIRT3_IC50, Trp 5-mer peptide; class symbols
metric: IC50

- compound: "CS(=O)(=O)NCCC1CCN(c2ncnc3cc(C(N)=O)oc23)CC1"
  assay.target: "SIRT3 (Homo sapiens, UniProt Q9NTG7)"
  IC50: "< 1000 nM"
- compound: "CC(C)(C)OC(=O)N1CCC2(CCN(c3ncnc4cc(C(N)=O)sc34)CC2)C1"
  assay.target: "SIRT3 (Homo sapiens, UniProt Q9NTG7)"
  IC50: "1000 to 10000 nM"
- compound: "NC(=O)c1cc2ncnc(N3CCC(CO)CC3)c2s1"
  assay.target: "SIRT3 (Homo sapiens, UniProt Q9NTG7)"
  IC50: "< 1000 nM"
- compound: "CCNc1ncnc2cc(C(N)=O)sc12"
  assay.target: "SIRT3 (Homo sapiens, UniProt Q9NTG7)"
  IC50: "> 10000 nM"

Lab note: each compound below needs its IC50 filled in.
1. NCCC1CCN(c2ccnc3cc(C(N)=O)sc23)CC1
2. Cc1c(C(N)=O)sc2c(N3CCC(CCN)CC3)ncnc12

1. < 1000 nM
2. 1000 to 10000 nM

Okay, here is my list. What is IC50 for each of these?
1. NC(=O)c1cc2nccc(N3CCC(CN4CCCC4)CC3)c2s1
2. CC(C)(C)OC(=O)NCC1CCN(c2ncnc3cc(C(N)=O)sc23)CC1
3. NC(=O)c1cc2ncnc(N3CCN(CCNC(=O)C4CCCC4)CC3)c2o1
4. NC(=O)c1cc2ncnc(N3CCC(CN4CCCC(C(F)(F)F)C4)CC3)c2s1 (stereo not shown)
5. CNC(=O)CC1CCN(c2ncnc3cc(C(N)=O)sc23)CC1

1. < 1000 nM
2. > 10000 nM
3. < 1000 nM
4. < 1000 nM
5. 1000 to 10000 nM

// each listed compound needs a value for IC50
1. Cc1nc(N2CCC(CCN3CCCC3)CC2)c2sc(C(N)=O)cc2n1
2. Cc1nc(N2CCN(CCN3CCCC3)CC2)c2sc(C(N)=O)cc2n1
3. Cc1nc(N2CCN(CCNC(=O)C3CCCC3)CC2)c2sc(C(N)=O)cc2n1
4. CCNC(=O)c1cccc(C(=O)NCCN2CCN(c3ncnc4ccsc34)CC2)c1
5. CN(C)CC1CCN(c2ncnc3cc(C(N)=O)sc23)CC1
6. COCCN1CCN(c2ncnc3cc(C(N)=O)sc23)CC1

1: < 1000 nM; 2: < 1000 nM; 3: 1000 to 10000 nM; 4: > 10000 nM; 5: < 1000 nM; 6: 1000 to 10000 nM

Report IC50 for every entry below.
1. CC(C1CCN(c2ncnc3cc(C(N)=O)sc23)CC1)N1CCCC1 (stereo not shown)
2. CCNC(=O)c1ccc(C(=O)NCCC2CCN(c3ncnc4cc(C(=O)NCC)sc34)CC2)s1

1. < 1000 nM
2. 1000 to 10000 nM

====

Task for the reader: assign each of the following compounds its reported IC50.
- assay.target: SIRT2 (Homo sapiens)
- Sequence (Q8IXJ6 whole entry): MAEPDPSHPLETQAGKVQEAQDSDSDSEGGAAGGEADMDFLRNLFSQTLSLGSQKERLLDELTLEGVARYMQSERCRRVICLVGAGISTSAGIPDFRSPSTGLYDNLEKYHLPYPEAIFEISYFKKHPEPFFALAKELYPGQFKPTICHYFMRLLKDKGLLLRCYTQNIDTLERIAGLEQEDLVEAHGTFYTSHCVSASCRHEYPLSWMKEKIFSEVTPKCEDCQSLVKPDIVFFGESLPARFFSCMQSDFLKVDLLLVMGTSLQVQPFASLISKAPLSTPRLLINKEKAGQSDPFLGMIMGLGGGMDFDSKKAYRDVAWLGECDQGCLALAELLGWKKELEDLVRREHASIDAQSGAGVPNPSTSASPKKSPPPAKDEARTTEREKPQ
- experimental.details: SIRT2 deacetylation of Trp 5-mer peptide, OAADPr mass spec assay
- Assay type: biochemical
- Set-up: His-SIRT2(1-389)
- stated.conditions: Trp 5-mer peptide and NAD at KM; mean of at least three determinations; read-out: IC50 (μM) SIRT2
Answers are plain numbers, in µM.

# example entries with known answers
- compound: "NC(=O)c1cc2ncnc(N3CCN(CCN4CCCC4)CC3)c2s1 [Compound 35, bis(2,2,2-trifluoroacetate)]"
  assay.target: "SIRT2 (Homo sapiens)"
  result.units: "µM"
  IC50: 0.029
- compound: "CCNC(=O)c1ccc(C(=O)NCCN2CCN(c3ncnc4cc(C(N)=O)sc34)CC2)s1 [Compound 11d]"
  assay.target: "SIRT2 (Homo sapiens)"
  result.units: "µM"
  IC50: 0.005
- compound: "NC(=O)c1cc2ncnc(N3CCCCC3)c2s1"
  assay.target: "SIRT2 (Homo sapiens)"
  result.units: "µM"
  IC50: 1.4

Kindly consider the entry below.
For record `NC(=O)c1cc2ncnc(N3CCC(CCNC(=O)c4ccc(C(=O)O)s4)CC3)c2s1` the listed IC50 is 0.004

====

Kindly supply the reported IC50 values for the records listed here.
- assay.target: UniProtKB Q96EB6
- Sequence (Q96EB6 1-747): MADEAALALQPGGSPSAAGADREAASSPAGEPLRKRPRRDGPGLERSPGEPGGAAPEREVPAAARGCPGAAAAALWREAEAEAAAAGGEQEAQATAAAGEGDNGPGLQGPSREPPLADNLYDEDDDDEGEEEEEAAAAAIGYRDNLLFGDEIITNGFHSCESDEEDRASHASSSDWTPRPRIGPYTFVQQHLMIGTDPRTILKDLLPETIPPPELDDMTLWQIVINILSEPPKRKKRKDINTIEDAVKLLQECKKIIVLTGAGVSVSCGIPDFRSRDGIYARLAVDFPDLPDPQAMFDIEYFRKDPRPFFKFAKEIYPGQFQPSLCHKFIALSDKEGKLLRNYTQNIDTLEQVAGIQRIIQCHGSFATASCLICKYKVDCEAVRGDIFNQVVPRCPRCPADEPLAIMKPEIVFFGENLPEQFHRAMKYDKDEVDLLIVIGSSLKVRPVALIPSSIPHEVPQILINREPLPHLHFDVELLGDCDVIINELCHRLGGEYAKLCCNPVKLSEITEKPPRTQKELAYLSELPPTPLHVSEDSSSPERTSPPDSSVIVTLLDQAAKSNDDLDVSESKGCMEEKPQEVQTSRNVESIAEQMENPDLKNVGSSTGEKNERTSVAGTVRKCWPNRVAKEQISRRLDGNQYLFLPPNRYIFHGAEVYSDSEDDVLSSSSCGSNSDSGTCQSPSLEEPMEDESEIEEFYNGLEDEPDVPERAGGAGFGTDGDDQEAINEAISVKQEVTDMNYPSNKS
- experimental.details: SIRT1 deacetylation of Trp 5-mer peptide, OAADPr mass spec assay
- stated.conditions: read-out: IC50 (μM) SIRT1; Trp 5-mer peptide and NAD at KM; mean of at least three determinations

Observe how each entry below is paired with its result.
- compound: "CC(C)(C)OC(=O)NCCC1CCN(c2ncnc3cc(C(N)=O)sc23)CC1 [Compound 15a]"
  metric: "IC50"
  result: "0.017 µM"
- compound: "NC(=O)c1cc2ncnc(N3CCC(CCNC(=O)c4ccc(C(=O)O)s4)CC3)c2s1"
  metric: "IC50"
  result: "0.014 µM"
- compound: "CC(=O)NCCN1CCN(c2ncnc3cc(C(N)=O)sc23)CC1"
  metric: "IC50"
  result: "1.6 µM"
- compound: "CCNC(=O)c1ccc(C(=O)NCCN2CCN(c3ncnc4cc(C(N)=O)sc34)CC2)s1 [Compound 11d]"
  metric: "IC50"
  result: "0.031 µM"

Continue with the compound presented below.
Note to self: IC50 recorded for `NC(=O)c1cc2ncnc(N3CCCCC3)c2s1` was 15 µM
